Assignment: determine reported phosphorylation enrichment for the given sequences.
- target-system: Fyn (UniProt P06241)
- Sequence (P06241 whole entry, looked up): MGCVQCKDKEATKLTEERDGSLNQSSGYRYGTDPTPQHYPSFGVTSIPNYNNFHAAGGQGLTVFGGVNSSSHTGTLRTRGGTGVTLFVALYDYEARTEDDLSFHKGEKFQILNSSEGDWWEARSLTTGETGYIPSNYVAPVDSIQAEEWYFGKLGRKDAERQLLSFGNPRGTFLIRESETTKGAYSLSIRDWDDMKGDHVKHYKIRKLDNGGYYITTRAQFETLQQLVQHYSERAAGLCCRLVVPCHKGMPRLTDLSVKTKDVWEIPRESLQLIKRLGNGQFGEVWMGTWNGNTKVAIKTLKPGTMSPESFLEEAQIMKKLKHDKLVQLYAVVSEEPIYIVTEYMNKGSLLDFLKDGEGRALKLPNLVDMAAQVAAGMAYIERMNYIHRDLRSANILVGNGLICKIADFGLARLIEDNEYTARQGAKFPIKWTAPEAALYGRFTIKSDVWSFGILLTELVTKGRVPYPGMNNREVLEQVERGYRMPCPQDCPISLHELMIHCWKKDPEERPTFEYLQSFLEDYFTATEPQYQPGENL
- assay-protocol: phosphorylation enrichment, bacterial display (enrichment ratio); higher = better substrate or ligand; peptides without Tyr show the background;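 further: 11-residue human phosphosite peptides and single-mutation variants displayed on the E. coli surface, counted by deep sequencing, each peptide's frequency after selection divided by its frequency in the unselected input library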;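 further: frequency after pTyr selection over input frequency; kinase dosed for 20-30% of maximal phosphorylation in three min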
Numbers only.

query-sequence	target-system	measured-quantity	recorded-measurement
NTGDYYDLYGG [PTPN11_Y63]	Fyn (UniProt P06241)	phosphorylation enrichment	5.18
ALHHPYGCDVE [ABL2_Y80_R78H]	Fyn (UniProt P06241)	phosphorylation enrichment	0.44
STEAIYRRYSK [SH3PXD2B_Y42]	Fyn (UniProt P06241)	phosphorylation enrichment	0.456
RLGDLYEEEMR [VIM_Y150]	Fyn (UniProt P06241)	phosphorylation enrichment	0.487

# evaluate next
Which measured phosphorylation enrichment value corresponds to LNWIYYKDQTG [RS1_Y166] ?
1.32

---

- target-system: Jak2 (UniProt O60674)
- Sequence (O60674 whole entry, looked up): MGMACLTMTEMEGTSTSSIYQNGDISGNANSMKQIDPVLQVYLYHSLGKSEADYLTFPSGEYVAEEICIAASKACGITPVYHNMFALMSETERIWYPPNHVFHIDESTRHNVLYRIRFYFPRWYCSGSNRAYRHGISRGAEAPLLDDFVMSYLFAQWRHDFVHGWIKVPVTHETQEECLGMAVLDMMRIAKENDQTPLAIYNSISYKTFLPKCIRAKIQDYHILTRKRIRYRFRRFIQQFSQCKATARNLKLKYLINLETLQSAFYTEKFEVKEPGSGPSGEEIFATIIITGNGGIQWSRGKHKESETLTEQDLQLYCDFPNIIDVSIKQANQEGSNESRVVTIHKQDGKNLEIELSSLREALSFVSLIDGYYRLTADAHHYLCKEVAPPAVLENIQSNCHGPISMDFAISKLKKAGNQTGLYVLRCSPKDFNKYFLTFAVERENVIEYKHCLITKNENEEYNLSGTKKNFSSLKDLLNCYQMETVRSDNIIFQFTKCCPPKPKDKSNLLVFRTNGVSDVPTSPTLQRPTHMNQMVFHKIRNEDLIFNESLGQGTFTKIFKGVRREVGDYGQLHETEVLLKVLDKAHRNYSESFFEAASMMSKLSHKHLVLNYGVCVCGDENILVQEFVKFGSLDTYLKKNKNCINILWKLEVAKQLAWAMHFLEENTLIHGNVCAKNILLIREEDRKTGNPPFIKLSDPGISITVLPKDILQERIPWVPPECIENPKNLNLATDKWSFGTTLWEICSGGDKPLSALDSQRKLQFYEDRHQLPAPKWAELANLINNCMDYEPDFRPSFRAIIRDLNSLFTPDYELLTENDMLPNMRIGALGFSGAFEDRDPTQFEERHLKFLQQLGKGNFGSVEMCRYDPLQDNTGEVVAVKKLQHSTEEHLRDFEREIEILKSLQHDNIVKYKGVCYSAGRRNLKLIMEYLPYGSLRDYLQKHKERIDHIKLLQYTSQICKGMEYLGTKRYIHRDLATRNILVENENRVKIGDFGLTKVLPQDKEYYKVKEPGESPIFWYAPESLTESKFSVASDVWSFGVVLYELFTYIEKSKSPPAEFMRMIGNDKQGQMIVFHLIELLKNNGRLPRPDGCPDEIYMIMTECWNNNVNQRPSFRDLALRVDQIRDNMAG
- assay-protocol: phosphorylation enrichment, bacterial display (enrichment ratio); higher = better substrate or ligand; peptides without Tyr show the background
measured-quantity: phosphorylation enrichment
One number for each entry.

query-sequence	recorded-measurement
HFVDEYDLTIE [KRAS_Y32_P34L]	2.13
GGSTFYIDTNA [ACTL6A_Y69_P66S_YF]	1.01
QMVDMYASSFM [AVPR2_Y124_G122D_YF]	1.47
ILDEAYVMAGA [ERBB2_Y772_V777A]	0.986
DLGIQYKVLKP [CTNNA1_Y177_A179V]	1.12

# map each sequence to its phosphorylation enrichment
1. APQFTYAQGGQ [FLNA_Y1763_YF]
2. WKEIEYEVVPD [CPS1_Y634_R638P]
3. GNFSGYDDAWD [POLR1C_Y36_YF]
4. ATHSGYRLNDY [CLDN14_Y233]
5. TNGFTYGSSHQ [MANEA_Y331]
6. LNYNEYFRDLN [HPRT1_Y198_D194N]

0.42
1.18
1.28
0.706
0.413
1.57

# map each sequence to its phosphorylation enrichment
1. GESLTYASTTF [C1orf162_Y120]
2. MRTMGYMPREM [CABP5_Y62_T65R]
3. RRVPVYGGRGA [QDPR_Y16_L14P]
4. LHQSTYQCYDV [SLC7A14_Y693_R695C]
5. QKKPRYEIRWK [PDGFRB_Y562]
6. PRLMLYNPTTF [EGFR_Y270_P266R_YF]

1. 0.505
2. 0.606
3. 1.36
4. 1.31
5. 1.74
6. 1.38

# map each sequence to its phosphorylation enrichment
1. EKQARYEIVVE [CDH5_Y223]
2. RIGRKYKKVRF [F8_Y442]
3. SARFRYLMAEK [LDHB_Y173]
4. TTKAKYKTPTY [PLD2_Y573]
5. DPHKIYEFVNS [IRF3_Y107]
6. CNRADYSKLAP [GNE_Y22]
7. RPQDGFRIVQH [PTPRT_Y1329_Y1329F]

[0.846, 0.432, 0.692, 0.488, 0.729, 0.621, 0.561]

---

- target-system: Jak2 (UniProt O60674)
- assay-protocol: phosphorylation enrichment, bacterial display (enrichment ratio); higher = better substrate or ligand; peptides without Tyr show the background
Assignment: determine reported phosphorylation enrichment for the given sequences.
Numbers only.

# map each sequence to its phosphorylation enrichment
1. QDEHGYIFRCF [HSPB1_Y133_S135F]
2. ISKKHYAGLLF [POLD1_Y809_R808H]
3. FPCSVYVPDEW [INSR_Y1011]
4. IDDNQYAFLKA [HNF4A_Y286_E285Q_YF]
5. KLPFPYDDPFS [GPX2_Y127_YF]

1: 1.6; 2: 0.636; 3: 1.11; 4: 0.709; 5: 0.9

# map each sequence to its phosphorylation enrichment
1. HYPDVYAREQL [ALX3_Y181]
2. MALDIYRASFF [ALK_Y1278_R1275L_YF]
3. SSYPDYLAAVD [GLB1_Y154_D151Y]
4. DRLTVYIDRVR [LMNA_Y45_A43T]
5. GKMSQYLESMQ [CYB5R3_Y130]
6. FAFQLYDLDRD [CHP2_Y123_YF]
7. KPVEEYANCHL [TF_Y593]
8. KVKPIYFRTQG [AR_Y916_H918R]

1. 0.892
2. 0.715
3. 0.994
4. 1.15
5. 0.539
6. 1.13
7. 0.915
8. 0.491

# map each sequence to its phosphorylation enrichment
1. AVLSLYASGCT [ACTA2_Y145_R149C]
2. KRLAVYQAGAR [APOE_Y180]

[1.2, 0.464]
